assay: Toxicity in Balb/c mouse assessed as survival rate at 80 mg/kg, ip measured after 7 days; assay type: organism-based; settings: in vivo, time 7 day
reported.metric: survival at 168 h (%)
I only need the number, in %, no unit after it.

Item CCCCCCCCCCCC(=O)N[C@H](CCCNC(=N)N)C(=O)N[C@H](CCCNC(=N)N)C(=O)N[C@H](Cc1c[nH]c2ccccc12)C(=O)O has what recorded survival at 168 h?
75

###

test system: Staphylococcus aureus; assay: Antibacterial activity against methicillin-resistant Staphylococcus aureus ATCC 33591 incubated for 18 to 24 hrs in presence of 0.5 mg/ml of pepsin by broth microdilution method; format: functional; settings: time 18-24 hrs
This listing pairs compounds with measured MIC.

Examples from the recorded data:
CCCCCCCCCCCC(=O)N[C@@H](CCCNC(=N)N)C(=O)N[C@H](CCCNC(=N)N)C(=O)N[C@H](Cc1c[nH]c2ccccc12)C(=O)O; 4 µM
CCCCCCCCCCCC(=O)N[C@H](CCCNC(=N)N)C(=O)N[C@H](CCCNC(=N)N)C(=O)N[C@@H](Cc1c[nH]c2ccccc12)C(=O)O; 4 µM
CCCCCCCCCCCC(=O)N[C@H](CCCNC(=N)N)C(=O)N[C@H](CCCNC(=N)N)C(=O)N[C@H](Cc1c[nH]c2ccccc12)C(=O)O; 8 µM

Which measured MIC value corresponds to CCCCCCCCCCCC(=O)N[C@H](CCCNC(=N)N)C(=O)N[C@@H](CCCNC(=N)N)C(=O)N[C@H](Cc1c[nH]c2ccccc12)C(=O)O ?
4 µM
